# system name: UniProtKB Q9NYK1
# run description: TLR7 inhibition reporter assay (HEK-Blue SEAP)
# Type: cell-based
# experimental parameters: HEK-Blue cells overexpressing human TLR7, gardiquimod 7.5 μM stimulation, SEAP reporter
pIC50: −log10 of the molar value.
measured parameter: pIC50

compound="Cc1cc(-c2[nH]c3ccc(C4CCC(N(C)C5COC5)CC4)nc3c2C(C)C)cn(C)c1=O (stereo not drawn) [Example 250]" system_name="UniProtKB Q9NYK1" measured_parameter=pIC50 numeric_value=7.59

I. CC(C)c1c(-c2cn(C)c3ncccc23)[nH]c2ccc(N3CC(N)C3)nc12 [Example 35]
II. Cc1c(-c2[nH]c3ccc(C4CCC(N(C)CC(=O)N(C)C)CC4)nc3c2C(C)C)cn2ncnc2c1C (stereo not drawn) [Example 368]
Problem: Given the entries I and II , determine which has the lower reported pIC50. Please indicate the selected item by its label.
I

1. COc1cc(-c2[nH]c3ccc(N4CCN(CC5(C)COC5)CC4)nc3c2C(C)C)cn2ncnc12 [Example 102]
2. C#CCNC1CCC(c2ccc3[nH]c(-c4cn5ncnc5c(C)c4C)c(C(C)C)c3n2)CC1 (stereo not drawn) [Example 371]
3. Cc1c(-c2[nH]c3ccc(N4CC(O)C4)nc3c2C(C)C)cn2ncnc2c1C [Example 38]
Rank ascending by pIC50. Please write the labels in the order that was asked for.
3, 1, 2

* * *

# system name: human TLR9 (Homo sapiens (Human))
# Sequence (Q9NR96 26-1032): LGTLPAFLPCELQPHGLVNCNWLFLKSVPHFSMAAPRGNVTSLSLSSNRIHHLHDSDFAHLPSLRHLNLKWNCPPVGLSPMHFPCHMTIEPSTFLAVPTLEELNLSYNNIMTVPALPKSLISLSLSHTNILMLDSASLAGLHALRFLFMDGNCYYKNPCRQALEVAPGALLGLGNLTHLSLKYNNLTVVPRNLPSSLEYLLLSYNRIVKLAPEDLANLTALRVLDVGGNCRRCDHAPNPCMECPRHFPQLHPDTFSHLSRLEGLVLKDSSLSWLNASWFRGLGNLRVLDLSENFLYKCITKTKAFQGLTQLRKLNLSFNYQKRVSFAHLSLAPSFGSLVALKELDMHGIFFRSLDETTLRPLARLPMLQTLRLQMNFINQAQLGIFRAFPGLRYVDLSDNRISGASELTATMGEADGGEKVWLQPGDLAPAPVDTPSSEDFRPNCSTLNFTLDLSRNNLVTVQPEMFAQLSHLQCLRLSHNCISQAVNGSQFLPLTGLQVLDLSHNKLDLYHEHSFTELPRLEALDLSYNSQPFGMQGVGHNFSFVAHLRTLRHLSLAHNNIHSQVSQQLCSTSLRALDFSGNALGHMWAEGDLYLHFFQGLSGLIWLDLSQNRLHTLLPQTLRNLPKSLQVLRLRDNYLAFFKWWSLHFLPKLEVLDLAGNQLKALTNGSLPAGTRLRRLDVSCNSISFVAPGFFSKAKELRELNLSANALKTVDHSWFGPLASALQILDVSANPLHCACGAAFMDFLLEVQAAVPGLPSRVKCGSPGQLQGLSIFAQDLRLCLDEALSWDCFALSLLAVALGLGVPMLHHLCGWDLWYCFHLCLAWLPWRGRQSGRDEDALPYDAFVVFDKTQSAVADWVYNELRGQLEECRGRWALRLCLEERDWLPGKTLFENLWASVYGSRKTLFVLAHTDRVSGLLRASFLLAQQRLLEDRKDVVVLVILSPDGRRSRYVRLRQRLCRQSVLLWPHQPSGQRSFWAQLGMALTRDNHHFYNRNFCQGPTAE
# run description: TLR9 inhibition reporter assay (HEK-Blue SEAP)
# experimental parameters: read-out: TLR9 IC50; HEK-Blue cells overexpressing human TLR9, SEAP reporter, ODN2006 5 nM
measured parameter: IC50 (µM)

a. Cc1c(-c2[nH]c3ccc(CCC4CN(CCS(C)(=O)=O)C4)nc3c2C(C)C)cn2ncnc2c1C
b. CNC(=O)CN1CCC(c2ccc3[nH]c(-c4cc(OC)c5ncnn5c4)c(C(C)C)c3n2)CC1
Could you check which of a and b has a smaller value for IC50? Your choice should be expressed through its label.
b

A. Cc1c(-c2[nH]c3ccc(C4CCC(N5CC(S(C)(=O)=O)C5)CC4)nc3c2C(C)C)cn2ncnc2c1C (stereo not shown) [Example 445]
B. Cc1c(-c2[nH]c3ccc(C4CCC(NCC(=O)NC(C)(C)C)CC4)nc3c2C(C)C)cn2ncnc2c1C (stereo not shown) [Example 485]
Which of the two gives a bigger number for IC50: A or B ? Return value: the label identifying the chosen record.
A

* * *

# system name: human TLR9 (Homo sapiens (Human))
# run description: TLR9 inhibition reporter assay (HEK-Blue SEAP);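 further: SEAP driven by an IFN-β minimal promoter with NF-κB and AP-1 sites, read after 22 h, compounds dosed 0.05 nM–50 µM, inhibition scaled between agonist plus DMSO and reference-inhibitor wells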
# experimental parameters: read-out: TLR9 IC50; HEK-Blue human TLR9 cells, ODN2006 5 nM
measured parameter: IC50 (µM)

smiles=Cc1c(-c2[nH]c3ccc(N4CCN(CCC(N)=O)C[C@H]4C)nc3c2C(C)C)cn2ncnc2c1C output_unit=µM numeric_value=16.3

a. Cc1c(-c2[nH]c3ccc(N4C[C@H](C)N(C(=O)CCN(C)C)C[C@H]4C)nc3c2C(C)C)cn2ncnc2c1C
b. Cc1c(-c2[nH]c3ccc(N4CC5(CN(CCCS(C)(=O)=O)C5)C4)nc3c2C(C)C)cn2ncnc2c1C
Would you let me know which has the greater IC50 value, a or b ? Reply with the label of the item you choose.
a

* * *

# system name: human TLR7 (Homo sapiens (Human), UniProt Q9NYK1)
# Sequence (Q9NYK1 27-1049): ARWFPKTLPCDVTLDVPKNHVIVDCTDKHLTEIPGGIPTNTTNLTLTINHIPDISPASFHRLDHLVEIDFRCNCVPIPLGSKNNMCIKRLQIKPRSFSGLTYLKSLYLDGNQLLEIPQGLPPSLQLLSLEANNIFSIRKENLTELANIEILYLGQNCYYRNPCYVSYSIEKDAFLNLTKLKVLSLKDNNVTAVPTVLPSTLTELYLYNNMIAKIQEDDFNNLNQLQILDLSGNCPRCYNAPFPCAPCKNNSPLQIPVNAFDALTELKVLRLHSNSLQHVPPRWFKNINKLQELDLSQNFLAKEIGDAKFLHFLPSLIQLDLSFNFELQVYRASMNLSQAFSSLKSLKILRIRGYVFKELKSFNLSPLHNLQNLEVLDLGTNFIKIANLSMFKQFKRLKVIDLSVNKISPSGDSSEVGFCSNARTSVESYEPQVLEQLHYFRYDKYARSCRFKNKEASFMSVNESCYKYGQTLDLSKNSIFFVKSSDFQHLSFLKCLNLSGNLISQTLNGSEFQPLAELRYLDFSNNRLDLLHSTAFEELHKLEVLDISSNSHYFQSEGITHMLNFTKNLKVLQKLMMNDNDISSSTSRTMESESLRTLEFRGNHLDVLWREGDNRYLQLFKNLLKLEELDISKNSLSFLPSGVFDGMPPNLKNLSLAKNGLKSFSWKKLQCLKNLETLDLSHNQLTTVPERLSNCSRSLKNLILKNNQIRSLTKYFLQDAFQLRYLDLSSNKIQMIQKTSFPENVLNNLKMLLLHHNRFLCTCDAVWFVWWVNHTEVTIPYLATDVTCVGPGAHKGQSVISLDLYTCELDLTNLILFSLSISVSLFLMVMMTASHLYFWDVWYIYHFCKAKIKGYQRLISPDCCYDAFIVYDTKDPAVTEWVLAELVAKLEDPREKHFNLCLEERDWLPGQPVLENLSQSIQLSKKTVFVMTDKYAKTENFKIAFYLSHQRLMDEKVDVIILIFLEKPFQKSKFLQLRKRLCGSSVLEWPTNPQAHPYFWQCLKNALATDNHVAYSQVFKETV
# run description: TLR7 inhibition reporter assay (HEK-Blue SEAP)
# Assay type: cell-based
# experimental parameters: HEK-Blue cells overexpressing human TLR7, SEAP reporter, gardiquimod 7.5 μM
pIC50: −log10 of the molar value.
measured parameter: pIC50

Consider the reported pIC50 for these compounds:
compound="Cc1c(-c2[nH]c3ccc(C4CN(CCS(C)(=O)=O)CCO4)nc3c2C(C)C)cn2ncnc2c1C (stereo not drawn)" measured_parameter=pIC50 numeric_value=7.49
compound="CNC(=O)CN(C1CCC(c2ccc3[nH]c(-c4cn5ncnc5c(C)c4C)c(C(C)C)c3n2)CC1)C1COC1 (stereo not drawn)" measured_parameter=pIC50 numeric_value=6.49
compound=Cc1c(-c2[nH]c3ccc(CCC4CN(CC5(C)COC5)C4)nc3c2C(C)C)cn2ncnc2c1C measured_parameter=pIC50 numeric_value=7.39
compound=Cc1c(-c2[nH]c3ccc(C4CCN(C5COC5)CC4)nc3c2C(C)C)cn2ncnc2c1C measured_parameter=pIC50 numeric_value=8.70
compound="Cc1c(-c2[nH]c3ccc(C4CCC(N(C)CC5(S(C)(=O)=O)CC5)CC4)nc3c2C(C)C)cn2ncnc2c1C (stereo not drawn) [Example 479]" measured_parameter=pIC50 numeric_value=8.54
compound=Cc1c(-c2[nH]c3ccc(C4CCN(CC(C)C)CC4)nc3c2C(C)C)cn(C)c(=O)c1Cl measured_parameter=pIC50 numeric_value=7.96

I. Cc1c(-c2[nH]c3ccc(C4CCC(N5CCN(C)C(=O)C5)CC4)nc3c2C(C)C)cn2ncnc2c1C (stereo not drawn) [Example 442]
II. Cc1cc(-c2[nH]c3ccc(C4CCN(CC(C)(C)O)CC4)nc3c2C(C)C)cn2ncnc12
III. Cc1cc2[nH]c(-c3cc(C)c4ncnn4c3)c(C(C)C)c2nc1C1CCN(C2COC2)CC1
IV. COc1cc(-c2[nH]c3ccc(C4CNCCO4)nc3c2C(C)C)cn2ncnc12 (stereo not drawn) [Example 676]
Order the records, beginning with the lowest pIC50 and ending with the highest. Response field: labels, in requested order.
I, IV, III, II

I. COc1cc(-c2[nH]c3ccc(OC4CCN(CC(=O)N(C)C)CC4)nc3c2C(C)C)cn2ncnc12
II. Cc1cc(-c2[nH]c3ccc(C4CN(C(=O)CN(C)C)CCO4)nc3c2C(C)C)cn(C)c1=O (stereo not drawn)
Hello, I am sorting some records. Could you say if I or II has the smaller pIC50 value? State the label of the item chosen.
II
(II: 7.77, I: 8.59)

P. COc1cc(-c2[nH]c3ccc(C4CC(N(C)C)C4)nc3c2C(C)C)cn2ncnc12 (stereo not drawn) [Example 629]
Q. COc1cc(-c2[nH]c3cc(C)c(C4CCN(CC(C)(C)O)CC4)nc3c2C(C)C)cn2ncnc12
Which entry has a larger number for pIC50, P or Q ? // caller expects the label of the chosen entry
Q
